Molecular target: CD28 (human) (UniProt P10747)
Experiment: flow cytometry, Jurkat cells (CD28); vs WT CD80 ECD-Fc (Abcam)
Endpoint: Fold change to WT CD80 (fold)

[[record]]
binder = "variant CD80 IgV-Fc D46V/M47L/V68M (Fc fusion) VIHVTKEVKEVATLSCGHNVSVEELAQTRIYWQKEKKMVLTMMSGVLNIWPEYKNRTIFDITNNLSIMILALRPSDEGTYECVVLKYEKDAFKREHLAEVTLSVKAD"
endpoint = "Fold change to WT CD80"
numeric_value = 3.1

[[record]]
binder = "variant CD80 IgV-Fc E35D/D46V/M47V/N48K/V68M (Fc fusion) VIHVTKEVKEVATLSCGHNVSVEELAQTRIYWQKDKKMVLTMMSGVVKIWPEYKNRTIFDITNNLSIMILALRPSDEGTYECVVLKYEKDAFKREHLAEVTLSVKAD"
endpoint = "Fold change to WT CD80"
numeric_value = 1.5

[[record]]
binder = "variant CD80 IgV-Fc E35D/M47L/V68M (Fc fusion) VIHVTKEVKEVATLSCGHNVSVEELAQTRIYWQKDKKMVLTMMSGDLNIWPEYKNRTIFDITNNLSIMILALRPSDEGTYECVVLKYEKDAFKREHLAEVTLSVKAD"
endpoint = "Fold change to WT CD80"
numeric_value = 1.8

[[record]]
binder = "variant CD80 IgV-Fc M47V/V68M (Fc fusion) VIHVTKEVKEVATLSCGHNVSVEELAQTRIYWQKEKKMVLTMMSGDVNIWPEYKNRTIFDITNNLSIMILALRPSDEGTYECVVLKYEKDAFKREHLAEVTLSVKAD"
endpoint = "Fold change to WT CD80"
numeric_value = 0.5

[[record]]
binder = "variant CD80 IgV-Fc E35D/N48K (Fc fusion) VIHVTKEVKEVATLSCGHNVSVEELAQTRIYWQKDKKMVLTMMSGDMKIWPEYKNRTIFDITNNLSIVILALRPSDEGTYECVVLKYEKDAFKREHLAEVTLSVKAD"
endpoint = "Fold change to WT CD80"
numeric_value = 0.3

[[record]]
binder = "variant CD80 IgV-Fc M47V/N48K/K89N (Fc fusion) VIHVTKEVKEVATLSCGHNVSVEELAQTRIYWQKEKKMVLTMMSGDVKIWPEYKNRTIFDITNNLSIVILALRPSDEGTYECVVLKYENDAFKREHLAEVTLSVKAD"
endpoint = "Fold change to WT CD80"
numeric_value = 0.5


1. variant CD80 IgV-Fc E35D/D46V/M47L/V68M/L85Q (Fc fusion) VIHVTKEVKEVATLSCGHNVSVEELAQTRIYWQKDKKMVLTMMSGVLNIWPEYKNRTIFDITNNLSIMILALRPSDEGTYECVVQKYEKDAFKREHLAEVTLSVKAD
2. variant CD80 IgV-Fc M47L (Fc fusion) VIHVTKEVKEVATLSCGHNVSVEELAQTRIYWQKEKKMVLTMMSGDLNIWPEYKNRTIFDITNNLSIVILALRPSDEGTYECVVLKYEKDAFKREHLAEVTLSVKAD
3. variant CD80 IgV-Fc E35D/M47V/N48K/V68M/L85Q (Fc fusion) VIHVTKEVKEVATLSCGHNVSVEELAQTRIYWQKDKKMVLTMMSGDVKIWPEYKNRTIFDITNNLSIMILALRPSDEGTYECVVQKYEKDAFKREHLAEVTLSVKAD
Query block: Form: Sort by [Fold change to WT CD80] Order [ ascending ] Please list each label once, in the requested order.
Result block: 3, 2, 1
(3: 0.2 fold, 2: 0.4 fold, 1: 0.7 fold)

A. variant CD80 IgV-Fc E35D/M47V (Fc fusion) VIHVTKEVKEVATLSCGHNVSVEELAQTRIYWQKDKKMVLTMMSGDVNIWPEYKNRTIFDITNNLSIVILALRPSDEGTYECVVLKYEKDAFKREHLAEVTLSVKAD
B. variant CD80 IgV-Fc M47V (Fc fusion) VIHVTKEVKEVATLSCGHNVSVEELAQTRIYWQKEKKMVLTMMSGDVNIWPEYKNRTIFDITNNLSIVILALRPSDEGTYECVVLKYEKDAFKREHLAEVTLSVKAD
C. variant CD80 IgV-Fc D46V/L85Q (Fc fusion) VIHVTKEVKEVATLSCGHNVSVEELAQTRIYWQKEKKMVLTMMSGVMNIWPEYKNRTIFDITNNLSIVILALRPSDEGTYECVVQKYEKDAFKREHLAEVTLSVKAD
Query block: # sort list by recorded Fold change to WT CD80, greatest to least Please list each label once, in the requested order.
Result block: A, C, B
(A: 0.7 fold, C: 0.2 fold, B: 0.1 fold)

1. variant CD80 IgV-Fc E35D/M47V/K89N (Fc fusion) VIHVTKEVKEVATLSCGHNVSVEELAQTRIYWQKDKKMVLTMMSGDVNIWPEYKNRTIFDITNNLSIVILALRPSDEGTYECVVLKYENDAFKREHLAEVTLSVKAD
2. variant CD80 IgV-Fc E35D/D46V/M47L/L85Q (Fc fusion) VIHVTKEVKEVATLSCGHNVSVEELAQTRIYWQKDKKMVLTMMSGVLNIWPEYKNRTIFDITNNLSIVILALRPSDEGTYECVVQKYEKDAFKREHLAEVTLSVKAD
Query block: // compare: 1 vs 2 , metric Fold change to WT CD80, want the smaller Answer by stating the label of the chosen item.
Result block: 2

A. variant CD80 IgV-Fc E35D/N48K/K89N (Fc fusion) VIHVTKEVKEVATLSCGHNVSVEELAQTRIYWQKDKKMVLTMMSGDMKIWPEYKNRTIFDITNNLSIVILALRPSDEGTYECVVLKYENDAFKREHLAEVTLSVKAD
B. variant CD80 IgV-Fc M47V/N48K/V68M (Fc fusion) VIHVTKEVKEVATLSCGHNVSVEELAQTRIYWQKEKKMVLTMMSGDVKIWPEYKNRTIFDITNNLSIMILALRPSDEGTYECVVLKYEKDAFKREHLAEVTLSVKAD
Query block: Please tell me which of the two, A or B , has the higher reported Fold change to WT CD80 value. Answer by stating the label of the chosen item.
Result block: B
(B: 0.9 fold, A: 0.6 fold)

Hey, just so you know, these numbers are from patent US20220177587A1.
